- ASSAY_SETUP: 313.15 K; 100 kPa; Liquid; Capillary tube (Ostwald / Ubbelohde) method
MEASURE_NAME: viscosity (mPa·s)

>>> print(df.to_string())
   structure_as_smiles  measure_name  readout_unit  measured_number
0            CCCCCCCCO     viscosity         mPa·s            4.587
1          CCCCCCCCCCO     viscosity         mPa·s              6.9
2               CCCCCO     viscosity         mPa·s            2.263

[A] CCCCCCCCCO
[B] CCCCO
[C] CCCCCCCO
[D] CCO
Ranking field: viscosity; order: falling. Sort and list the labels as requested.
A, C, B, D

###

- ASSAY_SETUP: 283.15 K; 100 kPa; Liquid; Capillary tube (Ostwald / Ubbelohde) method
MEASURE_NAME: viscosity (mPa·s)

Examples from the recorded data:
>>> df
                  molecule  readout_unit  measured_number
0            CCO [ethanol]         mPa·s            1.475
1  CCCCCCCCCO [nonan-1-ol]         mPa·s            17.44
2       CCCCO [butan-1-ol]         mPa·s            3.822

[1] CCCCCCCCCCO [decan-1-ol]
[2] CCCCCCCCO [octan-1-ol]
[3] CCCCCO [pentan-1-ol]
Ranking field: viscosity; order: falling. Sort and list the labels as requested.
1, 2, 3
(1: 22.06 mPa·s, 2: 13.49 mPa·s, 3: 5.417 mPa·s)

###

- ASSAY_SETUP: 298.15 K; 100 kPa; Liquid; Capillary tube (Ostwald / Ubbelohde) method
MEASURE_NAME: viscosity (mPa·s)

[a] CCCCCCCO
[b] CCCCO
Higher viscosity between a and b ? Please indicate the selected item by its label.
a
(a: 5.947 mPa·s, b: 2.558 mPa·s)

###

- ASSAY_SETUP: 298.15 K; 100 kPa; Liquid
MEASURE_NAME: mass density (kg/m3)

>>> print(df.to_string())
                   compound  readout_unit  measured_number
0  CCCCCCCCCCO [decan-1-ol]         kg/m3            826.5
1      CCCCCO [pentan-1-ol]         kg/m3            811.2
2             CCO [ethanol]         kg/m3            785.2
3    CCCCCCCO [heptan-1-ol]         kg/m3            819.1
4        CCCCO [butan-1-ol]         kg/m3            805.8
5    CCCCCCCCO [octan-1-ol]         kg/m3            821.9
6   CCCCCCCCCO [nonan-1-ol]         kg/m3            824.7

###

- ASSAY_SETUP: 303.15 K; 100 kPa; Liquid
MEASURE_NAME: mass density (kg/m3)

>>> print(df.to_string())
                   molecule  readout_unit  measured_number
0      CCCCCO [pentan-1-ol]         kg/m3            807.5
1    CCCCCCCO [heptan-1-ol]         kg/m3            815.6
2        CCCCO [butan-1-ol]         kg/m3            802.1
3             CCO [ethanol]         kg/m3            781.1
4  CCCCCCCCCCO [decan-1-ol]         kg/m3              823
5    CCCCCCCCO [octan-1-ol]         kg/m3            818.4
6   CCCCCCCCCO [nonan-1-ol]         kg/m3            821.3

###

- ASSAY_SETUP: 293.15 K; 100 kPa; Liquid; Capillary tube (Ostwald / Ubbelohde) method
MEASURE_NAME: viscosity (mPa·s)

Examples from the recorded data:
>>> print(df.to_string())
   structure_as_smiles  measure_name  measured_number
0          CCCCCCCCCCO     viscosity             14.5
1             CCCCCCCO     viscosity            7.026
2               CCCCCO     viscosity            3.974
3            CCCCCCCCO     viscosity            9.016

[I] CCCCO
[II] CCCCCCCCCO
[III] CCO
Task for the reader: rank each entry by its viscosity, from the minimum upward. Sort and list the labels as requested.
III, I, II
(III: 1.196 mPa·s, I: 2.859 mPa·s, II: 11.63 mPa·s)

###

- ASSAY_SETUP: 303.15 K; 100 kPa; Liquid; Capillary tube (Ostwald / Ubbelohde) method
MEASURE_NAME: viscosity (mPa·s)

In [3]: df
Out[3]:
   structure_as_smiles  measured_number
0               CCCCCO             2.99
1          CCCCCCCCCCO             9.61
2             CCCCCCCO            5.041
3            CCCCCCCCO            6.306

[a] CCCCCCCCCO
[b] CCCCO
From the items above, decide which of a and b has the lower viscosity reading. Please indicate the selected item by its label.
b
(b: 2.236 mPa·s, a: 7.806 mPa·s)

###

- ASSAY_SETUP: 293.15 K; 100 kPa; Liquid
MEASURE_NAME: mass density (kg/m3)

>>> df
                   molecule  readout_unit  measured_number
0        CCCCO [butan-1-ol]         kg/m3            809.6
1  CCCCCCCCCCO [decan-1-ol]         kg/m3            829.9
2   CCCCCCCCCO [nonan-1-ol]         kg/m3            828.1
3    CCCCCCCO [heptan-1-ol]         kg/m3            822.6
4             CCO [ethanol]         kg/m3            789.5
5    CCCCCCCCO [octan-1-ol]         kg/m3            825.2
6      CCCCCO [pentan-1-ol]         kg/m3            814.7

###

- ASSAY_SETUP: 313.15 K; 100 kPa; Liquid
MEASURE_NAME: mass density (kg/m3)

>>> df
                   compound  measured_number
0             CCO [ethanol]            772.3
1   CCCCCCCCCO [nonan-1-ol]            814.3
2        CCCCO [butan-1-ol]            794.3
3      CCCCCO [pentan-1-ol]              800
4    CCCCCCCO [heptan-1-ol]            808.4
5    CCCCCCCCO [octan-1-ol]            811.4
6  CCCCCCCCCCO [decan-1-ol]            816.2

###

- ASSAY_SETUP: 298.15 K; 100 kPa; Liquid; Capillary tube (Ostwald / Ubbelohde) method
MEASURE_NAME: viscosity (mPa·s)

Examples from the recorded data:
In [3]: df
Out[3]:
   structure_as_smiles  measure_name  measured_number
0          CCCCCCCCCCO     viscosity            11.47
1           CCCCCCCCCO     viscosity            9.519
2               CCCCCO     viscosity            3.441

[A] CCCCCCCCO
[B] CCO
Higher viscosity between A and B ? Please indicate the selected item by its label.
A
(A: 7.39 mPa·s, B: 1.102 mPa·s)
